# experiment.notes: A2780 ovarian cancer cell cytotoxicity, dose response, cytotoxicity control, plate reader, dry powder samples (AID 743046);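 also: 0% = neutral control wells and -100% = cytotoxic reference compound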
# particulars: series mostly up to 35 µM
Potency and affinity values are given separately. The source made the active and inactive calls. No rule for the calls is given here.

>  <smiles.representation>
C[C@H](CO)N1C[C@H](C)[C@@H](CN(C)C(=O)Cc2ccccc2)OCCCC[C@H](C)Oc2ccc(NC(=O)Nc3ccc(C(F)(F)F)cc3)cc2C1=O

>  <activity change, negative = cytotoxicity>
inactive

$$$$
>  <smiles.representation>
Cc1ccc(S(=O)(=O)Nc2ccc3c(c2)C(=O)N([C@@H](C)CO)C[C@@H](C)[C@H](CN(C)Cc2ccc(Cl)c(Cl)c2)OCCCC[C@@H](C)O3)cc1

>  <activity change, negative = cytotoxicity>
inactive

$$$$
>  <smiles.representation>
O=C(C[C@H]1CC[C@@H]2[C@H](COC[C@@H](O)CN2S(=O)(=O)c2cccc(Cl)c2)O1)Nc1ccc(-c2ccccc2)cc1

>  <activity change, negative = cytotoxicity>
inactive

$$$$

###

# Tested on: Wnt5a (protein binding on small-molecule microarray)
# experiment.notes: Wnt5a binders on small-molecule microarray, primary screen, biophysical, 635/667 nm fluorescence (AID 1142);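 also: fluorescence read at 667 nm with signal to noise per printed feature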
# particulars: 635 nm fluorescence, higher = more signal
Each entry gets rule not met if its composite z-score stays under -0.02, and rule met if its composite z-score is -0.02 or above.

Q: Confirm if composite z-score reported for the molecule C=C(COC)/C(=C/C[C@H](OC(C)=O)c1ccc(CO)o1)c1cnc2ccccc2c1 is -0.02 or above.
A: rule met

Q: Confirm if composite z-score reported for the molecule C=CCNC(=O)[C@@H]1[C@H]2C(=O)O[C@H](c3ccccc3)[C@H](c3ccccc3)N2[C@H](c2ccc(O)cc2)[C@@]12C(=O)Nc1ccc(C#Cc3ccc(OC)cc3)cc12 is -0.02 or above.
A: rule met

Q: Confirm if composite z-score reported for the molecule COc1ccc(CCNC(=O)[C@@]2(Sc3ccc(C)cc3)CC(=O)N(Cc3ccccc3)[C@@H]2c2ccc(CO)cc2I)cc1 is -0.02 or above.
A: rule not met

Q: Confirm if composite z-score reported for the molecule C=C(COC)C(=O)CC[C@H](OC(=O)c1ccccc1-c1ccccc1C(=O)O)c1ccccc1OCCO is -0.02 or above.
A: rule met

Q: Confirm if composite z-score reported for the molecule O=C(NO)[C@]1(Cc2ccccc2)N=C(c2ccc(OCCCO)cc2)O[C@@H]1c1ccccc1 is -0.02 or above.
A: rule not met

Q: Confirm if composite z-score reported for the molecule O=C1O[C@H](c2ccccc2)[C@H](c2ccccc2)N2[C@H]1[C@@H](C(=O)NC[C@H](O)c1ccccc1)[C@]1(C(=O)Nc3ccc(C#CC4(O)CCCCCC4)cc31)[C@H]2c1ccc(O)cc1 is -0.02 or above.
A: rule met

Q: Confirm if composite z-score reported for the molecule CC(C)(C)OC(=O)CC[C@]1(C(=O)NCc2ccccc2)N=C(c2ccc(OCCCO)cc2)O[C@H]1c1ccccc1N=[N+]=[N-] is -0.02 or above.
A: rule met

Q: Confirm if composite z-score reported for the molecule CC(C)[Si](C#C[Si](C(C)C)(C(C)C)C(C)C)(O[C@H](C)c1cn([C@H](C)c2ccccc2)nn1)C(C)C is -0.02 or above.
A: rule met

Q: Confirm if composite z-score reported for the molecule C=CCN1C(=O)[C@]2(O[C@H](CCn3cc([C@H](O)c4ccccc4)nn3)[C@@H]([Si](C)(C)c3ccc(OC)cc3)[C@@H]2C)c2cc(N3CCOC3=O)ccc21 is -0.02 or above.
A: rule not met

Q: Confirm if composite z-score reported for the molecule CC(C)[C@@H](C(=O)O)n1cc(-c2ccccn2)nn1 is -0.02 or above.
A: rule not met

Q: Confirm if composite z-score reported for the molecule CC(C)NC(=O)[C@@H]1c2ccccc2C(=O)N(Cc2cc(F)cc(C(F)(F)F)c2)[C@H]1c1ccc(CO)cc1 is -0.02 or above.
A: rule not met

Q: Confirm if composite z-score reported for the molecule CCOC(=O)C[C@H]1[C@H](OC(=O)c2ccc(-c3ccccc3)cc2)[C@@H](NC(=O)C2CCCCC2)c2cc(OCCCO)ccc2N1C(=O)c1ccc2ccccc2n1 is -0.02 or above.
A: rule met

Q: Confirm if composite z-score reported for the molecule CC(=O)NCCCC[C@@H]1NC(=O)[C@@H]2C[C@H](C(=O)O)[C@H](c3cccc(OCCO)c3)N2C1=O is -0.02 or above.
A: rule met

Q: Confirm if composite z-score reported for the molecule CC(C)C[C@@H]1NC(=O)[C@@]23C(=O)N[C@@H](Cc4ccccc4)C2[C@H](C)[C@@]2(C)O[C@H]2C3/C=C/C/C=C\CNC(=O)[C@H](Cc2ccccc2)NC1=O (stereo not given in full) is -0.02 or above.
A: rule not met

Q: Confirm if composite z-score reported for the molecule CCCCCCC#C[Si](O[C@H](c1ccccc1)c1cn(Cc2ccccc2)nn1)(C(C)C)C(C)C is -0.02 or above.
A: rule met

###

# study.system: NADPH oxidase 5 (Homo sapiens)
# experiment.notes: NOX5-dependent H2O2 signal modulators, primary screen, NOX inhibitor project, cell-based, HEK293-NOX5, Amplex Red fluorescence (AID 1161)
# particulars: HEK293-NOX5, ionomycin, 45 min, higher = more signal
I'd appreciate it if you could supply z-score values for the items below.
Keep the answer to the number alone.

Q: # get_value(readout= z-score, system= NADPH oxidase 5 (Homo sapiens)) for CC(C)C[C@@H]1NC(=O)[C@@]23C(=O)N[C@@H](Cc4ccccc4)C2[C@H](C)[C@@]2(C)O[C@H]2C3/C=C/C/C=C\CNC(=O)[C@H](Cc2ccccc2)NC1=O (stereo partly drawn)
A: -3.15

Q: # get_value(readout= z-score, system= NADPH oxidase 5 (Homo sapiens)) for CC(=O)OC(C/C=C\B1OC(C)(C)C(C)(C)O1)c1ccccc1 (stereo not drawn)
A: -2.94

Q: # get_value(readout= z-score, system= NADPH oxidase 5 (Homo sapiens)) for CC(=O)NCCCC[C@@H]1NC(=O)[C@@H]2C[C@H](C(=O)O)[C@H](c3cccc(OCCO)c3)N2C1=O
A: -0.948

Q: # get_value(readout= z-score, system= NADPH oxidase 5 (Homo sapiens)) for C=CCNC(=O)[C@H]1[C@@H]2C(=O)O[C@@H](c3ccccc3)[C@@H](c3ccccc3)N2[C@@H](c2ccc(OCCO)cc2)[C@]12C(=O)Nc1ccc(C#CCCO)cc12
A: 0.572

Q: # get_value(readout= z-score, system= NADPH oxidase 5 (Homo sapiens)) for C=CCN1C(=O)[C@@]2(O[C@@H](CCO)[C@H]([Si](C)(C)c3ccc(OC)cc3)[C@H]2C)c2cc(N(C=O)c3ccccc3)ccc21
A: -0.174

Q: # get_value(readout= z-score, system= NADPH oxidase 5 (Homo sapiens)) for C=CCN1C(=O)[C@@]2(O[C@@H](CCn3cc(CCO)nn3)[C@H]([Si](C)(C)c3ccc(OC)cc3)[C@H]2C)c2cc(N3C(=O)c4cccc5cccc3c45)ccc21
A: -0.148

Q: # get_value(readout= z-score, system= NADPH oxidase 5 (Homo sapiens)) for O=C(NCc1ccccc1)[C@@H]1c2ccccc2C(=O)N(Cc2ccccc2Cl)[C@H]1c1ccc(CO)cc1
A: -0.544

Q: # get_value(readout= z-score, system= NADPH oxidase 5 (Homo sapiens)) for CCOC(=O)C[C@H]1[C@H](OC(=O)c2ccc(C(=O)c3ccccc3)cc2)[C@@H](NC(=O)Cc2ccc(OC)cc2)c2cc(OCCCO)ccc2N1C(=O)Cc1ccc(OC)cc1
A: 1.52

Q: # get_value(readout= z-score, system= NADPH oxidase 5 (Homo sapiens)) for C=CCNC(=O)[C@@H]1[C@H]2C(=O)O[C@H](c3ccccc3)[C@H](c3ccccc3)N2[C@H](c2ccc(O)cc2)[C@@]12C(=O)N(C(=O)OCCOC)c1ccc(C#Cc3ccc(OC)cc3)cc12
A: 1.9

Q: # get_value(readout= z-score, system= NADPH oxidase 5 (Homo sapiens)) for C#CCN1C(C(=O)OCC)OC[C@H]1c1ccccc1 (stereo partly drawn)
A: -0.727

Q: # get_value(readout= z-score, system= NADPH oxidase 5 (Homo sapiens)) for C[N+](C)(C)CCCC[C@@H]1NC(=O)[C@H]2C[C@@H](C(=O)NCCCCCN)[C@@H](c3cccc(OCCO)c3)N2C1=O
A: 2.24

Q: # get_value(readout= z-score, system= NADPH oxidase 5 (Homo sapiens)) for CCOC(=O)C[C@H]1[C@H](OC(=O)c2ccc(-c3ccccc3)cc2)[C@@H](NC(=O)C2CCCCC2)c2cc(OCCCO)ccc2N1C(=O)c1ccc2ccccc2n1
A: 1.94

Q: # get_value(readout= z-score, system= NADPH oxidase 5 (Homo sapiens)) for NC(=O)NCC#Cc1ccc2c(c1)[C@]1(C(=O)N2)[C@H](c2ccc(OCCO)cc2)N2[C@H](c3ccccc3)[C@H](c3ccccc3)OC(=O)[C@H]2[C@@H]1C(=O)Nc1nc2ccccc2s1
A: 1.16

Q: # get_value(readout= z-score, system= NADPH oxidase 5 (Homo sapiens)) for C=C(COC)/C(=C/C[C@H](OC(C)=O)c1cccc(OCCO)c1)c1cc(C(=O)OC)ccc1OC
A: -3.06

Q: # get_value(readout= z-score, system= NADPH oxidase 5 (Homo sapiens)) for C=C(/C(=C/C[C@H](OC(=O)c1ccncc1)c1cccc(OCCO)c1)c1cc(C(=O)OC)ccc1OC)C(C)C
A: -1.71

Q: # get_value(readout= z-score, system= NADPH oxidase 5 (Homo sapiens)) for COCCCNC(=O)[C@@]1(Cc2ccccc2)N=C(c2ccc(OCCCO)cc2)O[C@H]1c1ccccc1N=[N+]=[N-]
A: -1.57

Q: # get_value(readout= z-score, system= NADPH oxidase 5 (Homo sapiens)) for Cc1ccc(N2C(=O)c3ccccc3[C@](C)(C(=O)NC3CC3)[C@@H]2c2ccc(CO)cc2)nc1
A: 0.398

Q: # get_value(readout= z-score, system= NADPH oxidase 5 (Homo sapiens)) for COCCCNC(=O)[C@@]1(Cc2ccccc2CN=[N+]=[N-])COC(c2ccc(OCCCO)cc2)=N1
A: -2.89

Q: # get_value(readout= z-score, system= NADPH oxidase 5 (Homo sapiens)) for CCN(CC)c1ccc(N2CC=CC34O[C@@H]5C=CCOC(=O)[C@@H]5[C@H]3C(=O)N(C(C)CO)[C@@H]4C2=O)cc1 (stereo partly drawn)
A: 0.871

Q: # get_value(readout= z-score, system= NADPH oxidase 5 (Homo sapiens)) for C=CC[C@@]1(C(=O)NCc2ccccc2)N=C(c2ccc(OCCCO)cc2)O[C@@H]1c1ccccc1
A: -1.14

Q: # get_value(readout= z-score, system= NADPH oxidase 5 (Homo sapiens)) for C[C@@H](OCc1ccccc1)C1NC(=O)[C@@]23C(=O)N[C@@H](Cc4ccccc4)C2[C@H](C)[C@@]2(C)O[C@H]2C3/C=C/C/C=C\CNC(=O)[C@@H]2CCCN2C1=O (stereo partly drawn)
A: -0.915

Q: # get_value(readout= z-score, system= NADPH oxidase 5 (Homo sapiens)) for COC(=O)C1=CC(c2ccc(CO)cc2)=CC(C2CC2)N(C)C=C1C(=O)OC (stereo not drawn)
A: -1.69

Q: # get_value(readout= z-score, system= NADPH oxidase 5 (Homo sapiens)) for COc1ccc(/C=C/C(=O)c2cccc(OCC(=O)OC(C)(C)C)c2)cc1
A: -3.7

Q: # get_value(readout= z-score, system= NADPH oxidase 5 (Homo sapiens)) for COc1ccc([Si](C)(C)[C@@H]2[C@@H](CCn3cc([C@H](O)c4ccccc4)nn3)O[C@]3(C(=O)N(C)c4c(Br)cc(C)cc43)[C@H]2C)cc1
A: 0.231

Q: # get_value(readout= z-score, system= NADPH oxidase 5 (Homo sapiens)) for COCCOC(=O)N1C(=O)[C@@]2(c3cc(C#CC4(O)CCCCCC4)ccc31)[C@H](c1ccc(O)cc1)N1[C@H](c3ccccc3)[C@H](c3ccccc3)OC(=O)[C@H]1[C@@H]2C(N)=O
A: 1.29

Q: # get_value(readout= z-score, system= NADPH oxidase 5 (Homo sapiens)) for CC(C)C(CO)N1C(=O)[C@@H]2[C@H]3C(=O)OCC=C[C@H]3OC23C=CCN(Cc2ccccc2)C(=O)[C@@H]13 (stereo partly drawn)
A: 1.61

Q: # get_value(readout= z-score, system= NADPH oxidase 5 (Homo sapiens)) for CC(C)[C@@H](C(=O)O)n1cc(-c2ccccn2)nn1
A: -0.24

Q: # get_value(readout= z-score, system= NADPH oxidase 5 (Homo sapiens)) for COc1ccc(C#Cc2ccc3c(c2)[C@]2(C(=O)N3)[C@H](c3ccc(O)cc3)N3[C@H](c4ccccc4)[C@H](c4ccccc4)OC(=O)[C@H]3[C@@H]2C(N)=O)cc1
A: 0.618
